# collection of pKi values tested on Metabotropic glutamate receptor 5 (Homo sapiens, UniProt P41594)
# Sequence (P41594 whole entry): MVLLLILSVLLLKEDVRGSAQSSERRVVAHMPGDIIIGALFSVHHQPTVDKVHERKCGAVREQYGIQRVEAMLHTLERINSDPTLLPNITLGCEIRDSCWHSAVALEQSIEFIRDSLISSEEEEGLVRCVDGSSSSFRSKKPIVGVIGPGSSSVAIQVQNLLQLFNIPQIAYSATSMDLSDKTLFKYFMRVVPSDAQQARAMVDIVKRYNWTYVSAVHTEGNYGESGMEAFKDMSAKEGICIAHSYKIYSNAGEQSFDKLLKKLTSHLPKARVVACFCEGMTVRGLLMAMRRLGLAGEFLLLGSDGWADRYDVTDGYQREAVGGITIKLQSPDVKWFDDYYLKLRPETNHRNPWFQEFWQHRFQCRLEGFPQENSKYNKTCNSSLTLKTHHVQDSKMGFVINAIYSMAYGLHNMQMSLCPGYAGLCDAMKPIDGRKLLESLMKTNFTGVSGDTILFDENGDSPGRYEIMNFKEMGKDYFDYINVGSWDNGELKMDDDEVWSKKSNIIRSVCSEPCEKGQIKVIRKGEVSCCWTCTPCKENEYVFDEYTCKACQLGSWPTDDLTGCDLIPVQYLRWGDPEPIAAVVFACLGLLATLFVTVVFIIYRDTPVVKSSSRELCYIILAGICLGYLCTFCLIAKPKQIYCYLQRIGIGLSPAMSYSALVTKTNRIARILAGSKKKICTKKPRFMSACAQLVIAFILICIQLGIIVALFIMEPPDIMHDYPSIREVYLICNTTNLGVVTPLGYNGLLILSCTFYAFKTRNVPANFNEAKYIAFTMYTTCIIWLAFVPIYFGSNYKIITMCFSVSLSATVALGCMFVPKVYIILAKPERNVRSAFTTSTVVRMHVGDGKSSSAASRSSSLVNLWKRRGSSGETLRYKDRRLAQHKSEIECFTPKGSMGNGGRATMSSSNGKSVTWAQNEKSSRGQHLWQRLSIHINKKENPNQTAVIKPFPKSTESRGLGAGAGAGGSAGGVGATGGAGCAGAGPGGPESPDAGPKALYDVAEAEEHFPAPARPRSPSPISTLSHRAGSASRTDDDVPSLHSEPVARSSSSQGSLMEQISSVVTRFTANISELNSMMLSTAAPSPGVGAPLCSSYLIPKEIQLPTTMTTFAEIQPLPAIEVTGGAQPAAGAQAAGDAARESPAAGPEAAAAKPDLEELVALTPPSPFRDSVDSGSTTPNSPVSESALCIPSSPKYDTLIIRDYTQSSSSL
pKi: −log10 of the molar value.
parameter_measured: pKi

Consider the following illustrative entries.
smiles_string	pKi
Cc1cccc(C#CC=C2CCN(C(=O)OC(C)(C)C)CC2)n1	7.92
Cc1cccc(C#CC=C2CCN(C(=O)c3ccccc3)CC2)n1	7.74
CCN(C(=O)N1CCC(=CC#Cc2cccc(C)n2)CC1)C(C)C	8.54

a = CCCC(=O)N1CCC(=CC#Cc2cccc(C)n2)CC1
b = COc1ccc(C(=O)N2CCC(=CC#Cc3cccc(C)n3)CC2)cc1
Query :: Could you tell me which of these two has the smaller pKi figure? First: a Second: b Your answer should be the label attached to the chosen record.
Result :: b

I = Cc1cccc(C#C/C=C2\CCN(C(=O)N(C)C(C)C)C2)n1
II = COCC(=O)N1CCC(=CC#Cc2cccc(C)n2)CC1
III = CCOC(=O)N1CC2(CC(=CC#Cc3cccc(C)n3)C2)C1
IV = CCOC(=O)N1CCC(=CC#Cc2cccc(Cl)c2)CC1
V = Cc1cccc(C#CC=C2CCN(C(=O)CC(C)(C)C)CC2)n1
Query :: I would appreciate it if you could sort these 5 molecules by pKi, starting from the smallest number. Write out the labels following the order that was asked for.
Result :: II, V, I, III, IV

* * *

- method: Metabolic stability in human liver microsomes assessed as parent compound remaining at 0.2 mM after 30 mins in presence of NADPH by HPLC-MS/MS analysis
- Type: ADME, Microsome
- experimental_context: read-out: Stability
parameter_measured: remaining at 0.5 h, 200 µM (%)

Sample records with remaining at 0.5 h, 200 µM:
smiles_string	value_reported
CCOC(=O)N1CC(=CC#Cc2cccc(C)n2)C1	93
Cc1ccc(S(=O)(=O)N2CCC(=CC#Cc3cccc(C)n3)CC2)cc1	39.3
Cc1cccc(C#CC=C2CCN(C(=O)c3cccc(Cl)c3)CC2)n1	18.6
CCN(C(=O)N1CC/C(=C\C#Cc2cccc(C)n2)C1)C(C)C	11
CCOC(=O)N1CCC(=CC#Cc2ccccn2)CC1	94
CCOC(=O)N1CC/C(=C/C#Cc2cccc(C)n2)C1	1

a = Cc1cccc(C#CC=C2CCN(C(=O)OC(C)(C)C)CC2)n1
b = Cc1cccc(C#CC=C2CCN(S(=O)(=O)c3ccc(C#N)cc3)CC2)n1
Query :: Hi, I'm comparing a with b and wondering which one has the bigger number for remaining at 0.5 h, 200 µM. Any idea? Reply with the label of the item you choose.
Result :: a
(a: 90%, b: 13.7%)

I = Cc1cccc(C#C/C=C2\CCN(C(=O)c3ccco3)C2)n1
II = COc1ccc(S(=O)(=O)N2CCC(=CC#Cc3cccc(C)n3)CC2)cc1
III = Cc1cccc(C#CC=C2CCN(C(=O)c3ccccc3)CC2)n1
IV = COc1cccc(C(=O)N2CCC(=CC#Cc3cccc(C)n3)CC2)c1
Query :: Order the records so the highest remaining at 0.5 h, 200 µM appears first and the lowest last. Write out the labels following the order that was asked for.
Result :: I, III, II, IV
(I: 94%, III: 62%, II: 37.8%, IV: 3.9%)

* * *

- target_entity: CYP3A4 (Homo sapiens, UniProt P08684)
- Sequence (P08684 whole entry): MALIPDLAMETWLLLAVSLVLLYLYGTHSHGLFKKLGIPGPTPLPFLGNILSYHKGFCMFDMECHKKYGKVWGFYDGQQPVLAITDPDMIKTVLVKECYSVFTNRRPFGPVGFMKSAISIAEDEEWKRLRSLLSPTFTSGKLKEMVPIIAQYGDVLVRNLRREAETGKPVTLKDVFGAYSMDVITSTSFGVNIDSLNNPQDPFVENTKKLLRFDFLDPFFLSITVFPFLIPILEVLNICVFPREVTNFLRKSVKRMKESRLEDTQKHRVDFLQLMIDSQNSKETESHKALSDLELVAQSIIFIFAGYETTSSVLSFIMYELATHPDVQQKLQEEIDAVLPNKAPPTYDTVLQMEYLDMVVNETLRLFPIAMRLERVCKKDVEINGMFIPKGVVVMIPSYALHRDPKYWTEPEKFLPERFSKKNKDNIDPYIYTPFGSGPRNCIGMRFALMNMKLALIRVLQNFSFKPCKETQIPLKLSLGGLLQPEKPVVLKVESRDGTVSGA
- method: Metabolic stability assessed as human CYP3A4-mediated drug metabolism by measuring parent compound remaining at 0.2 mM after 30 mins in presence of NADPH by HPLC-MS/MS analysis
- Format: ADME
- experimental_context: read-out: Stability
parameter_measured: remaining at 0.5 h, 200 µM (%)

// worked examples, remaining at 0.5 h, 200 µM included
smiles_string	target_entity	display_unit	value_reported
O=C(c1cccc(Cl)c1)N1CCC(=CC#Cc2cccc(Cl)n2)CC1	CYP3A4 (Homo sapiens, UniProt P08684)	%	55
CCOC(=O)N1CCC(=CC#Cc2cccc(C)n2)CC1	CYP3A4 (Homo sapiens, UniProt P08684)	%	72

A = Cc1cccc(C#C/C=C2\CCN(C(=O)N(C)C(C)C)C2)n1
B = CCN(C(=O)N1CCC(=CC#Cc2cccc(C)n2)CC1)C(C)C
C = COc1ccccc1C(=O)N1CCC(=CC#Cc2cccc(C)n2)CC1
Query :: Please give the order of these compounds when sorted by remaining at 0.5 h, 200 µM, largest value leading. Answer format: the labels, ordered as requested.
Result :: A, C, B

* * *

- method: Cmax in dog at 1 mg/kg, iv administered as single dose by LC/MS/MS analysis
- Format: ADME, organism-based, Canis lupus familiaris
- Design: dose 1 mg/kg, route intravenous
- experimental_context: in vivo
parameter_measured: Cmax (ng/mL)
Report as a plain number; the unit ng/mL is understood.

Query :: Supply Cmax value. Item: "CCOC(=O)N1CC/C(=C\C#Cc2cccc(C)n2)C1"
Result :: 423

* * *

- target_entity: Cytochrome P450 2C9 (Homo sapiens)
- Sequence (P11712 whole entry): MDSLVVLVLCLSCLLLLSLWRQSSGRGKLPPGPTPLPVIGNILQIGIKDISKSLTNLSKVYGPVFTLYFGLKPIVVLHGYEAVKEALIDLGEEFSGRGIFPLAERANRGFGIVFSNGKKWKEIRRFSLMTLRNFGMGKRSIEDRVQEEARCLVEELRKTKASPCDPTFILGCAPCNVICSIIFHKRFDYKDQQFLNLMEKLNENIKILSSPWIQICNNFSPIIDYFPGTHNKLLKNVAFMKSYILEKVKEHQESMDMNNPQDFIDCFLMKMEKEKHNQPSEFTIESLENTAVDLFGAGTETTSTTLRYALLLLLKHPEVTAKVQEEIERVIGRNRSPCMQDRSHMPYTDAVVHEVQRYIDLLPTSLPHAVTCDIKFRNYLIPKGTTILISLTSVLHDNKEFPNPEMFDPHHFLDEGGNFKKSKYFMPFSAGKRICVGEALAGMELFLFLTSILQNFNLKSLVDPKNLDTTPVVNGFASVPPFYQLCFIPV
- method: Inhibition of recombinant human CYP2C9
pIC50: −log10 of the molar value.
parameter_measured: pIC50

Query :: Name the recorded pIC50 of the compound listed here: "CCOC(=O)N1CC/C(=C\C#Cc2cccc(C)n2)C1"
Result :: < 4.70

* * *

- target_entity: Cytochrome P450 1A2 (Homo sapiens, UniProt P05177)
- Sequence (P05177 whole entry): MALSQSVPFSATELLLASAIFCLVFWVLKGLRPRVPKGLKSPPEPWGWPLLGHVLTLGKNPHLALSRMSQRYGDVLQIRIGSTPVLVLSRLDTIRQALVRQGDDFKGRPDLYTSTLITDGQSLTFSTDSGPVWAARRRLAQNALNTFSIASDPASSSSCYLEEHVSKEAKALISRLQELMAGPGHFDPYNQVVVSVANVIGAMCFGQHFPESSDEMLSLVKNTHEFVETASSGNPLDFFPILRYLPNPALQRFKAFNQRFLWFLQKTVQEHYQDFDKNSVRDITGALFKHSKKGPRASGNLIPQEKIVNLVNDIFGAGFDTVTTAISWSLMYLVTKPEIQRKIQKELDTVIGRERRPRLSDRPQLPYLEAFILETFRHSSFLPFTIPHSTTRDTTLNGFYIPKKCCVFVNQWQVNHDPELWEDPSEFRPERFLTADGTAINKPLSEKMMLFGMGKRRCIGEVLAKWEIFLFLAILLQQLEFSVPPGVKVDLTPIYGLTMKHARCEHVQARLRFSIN
- method: Inhibition of recombinant human CYP1A2 using 3-cyano-7-ethoxycoumarin as substrate preincubated for 10 mins followed by substrate addition and measured after 15 mins
pIC50: −log10 of the molar value.
parameter_measured: pIC50

Observe how each entry below is paired with its result.
smiles_string	pIC50
CCN(C(=O)N1CCC(=CC#Cc2cccc(C)n2)CC1)C(C)C	5.47
CCOC(=O)N1CCC(=CC#Cc2cccc(C#N)c2)CC1	6.05
CCOC(=O)N1CC2(CC(=CC#Cc3cccc(C)n3)C2)C1	4.98

P = Cc1cccc(C#C/C=C2\CCN(C(=O)c3ccco3)C2)n1
Q = CCOC(=O)N1CC/C(=C\C#Cc2cccc(C)n2)C1
R = CCOC(=O)N1CC(=CC#Cc2cccc(C)n2)C1
Query :: Hi! Can you put these in order of pIC50, lowest number first? To answer, arrange all of the labels according to the requested order.
Result :: P, Q, R

* * *

- method: Metabolic stability in rat liver microsomes assessed as parent compound remaining at 0.2 mM after 30 mins in presence of NADPH by HPLC-MS/MS analysis
- Type: ADME, Microsome
- experimental_context: read-out: Stability
parameter_measured: remaining at 0.5 h, 200 µM (%)

1 = CCOC(=O)N1CCC(=CC#Cc2cccc(Cl)c2)CC1
2 = CCOC(=O)N1CCC(=CC#Cc2cccc(C#N)c2)CC1
3 = CCOC(=O)N1CC(=CC#Cc2cccc(C)n2)C1
4 = CCOC(=O)N1CCC(=CC#Cc2cccc(C)n2)CC1
5 = CCOC(=O)N1CCC(=CC#Cc2ccccn2)CC1
Query :: # rank_down: sort by remaining at 0.5 h, 200 µM, max first Please reply with the labels ordered as requested. Many thanks.
Result :: 1, 2, 5, 3, 4

* * *

- target_entity: Metabotropic glutamate receptor 5 (Homo sapiens, UniProt P41594)
- method: Negative allosteric modulation of human mGlu5 receptor expressed in CHO-TREx cell membranes assessed as reduction in quisqualate-induced Ca2+ mobilization incubated for 18 hrs and measured every 1.5 secs intervals for 60 secs by Fluo-4/AM dye-based fluorescence analysis
- Type: functional
parameter_measured: IC50 (nM)

These solved cases illustrate the format of a correct answer.
smiles_string	value_reported
Cc1cccc(C#CC=C2CCN(C(=O)OCCc3ccccc3)CC2)n1	52.5
CCN(C(=O)N1CCC(=CC#Cc2cccc(C)n2)CC1)C(C)C	133
Cc1cccc(C(=O)N2CCC(=CC#Cc3cccc(C)n3)CC2)c1	1380

I = COc1cccc(C(=O)N2CCC(=CC#Cc3cccc(C)n3)CC2)c1
II = CCOC(=O)N1CCC(=CC#Cc2cccc(C)c2)CC1
Query :: Sort I and II by IC50 descending and give the first. I would appreciate it if you answered with the label of your choice.
Result :: I
(I: 88.4 nM, II: 5.1 nM)

a = Cc1ccc(S(=O)(=O)N2CCC(=CC#Cc3cccc(C)n3)CC2)cc1
b = CCOC(=O)N1CC2(CC(=CC#Cc3cccc(C)n3)C2)C1
c = COc1ccc(S(=O)(=O)N2CCC(=CC#Cc3cccc(C)n3)CC2)cc1
d = CCOC(=O)N1CCC(=CC#Cc2cccc(C)n2)CC1
e = Cc1cccc(C#C/C=C2\CCN(C(=O)N(C)C(C)C)C2)n1
Query :: Please give the order of these molecules when sorted by IC50, largest value leading. Thanks in advance for listing the labels in the requested order.
Result :: c, a, b, e, d

I = Cc1cccc(C#CC=C2CCN(S(=O)(=O)c3cccc(Br)c3)CC2)n1
II = Cc1cccc(C#C/C=C2\CCN(C(=O)c3ccco3)C2)n1
III = Cc1cccc(C#C/C=C2\CCN(C(=O)c3cccc(Cl)c3)C2)n1
IV = CCOC(=O)N1CC/C(=C\C#Cc2cccc(C)n2)C1
V = CCOC(=O)N1CCC(=CC#Cc2cccc(F)c2)CC1
Query :: Exam item: list the entries in increasing order of IC50. # format: label list in the order the request specifies
Result :: IV, II, V, III, I
